- target_entity: human orexin-2 receptor (OX2R) (Homo sapiens)
- test_description: Human OX2R IP1 assay
- settings: T-Rex CHO cells stably overexpressing human OX2R, IP1 accumulation, 1 hr at 37 degrees C; mean EC50; ∧ = racemic mixture
assay_metric: EC50

In the examples that follow, each entry is paired with its recorded EC50.
> print(dat)
                                   compound          result
1  CS(=O)(=O)N[C@H]1CCN2C(=O)COc3c(F)cc(F)cc3[C@H]3CC[C@H](CC3)OC[C@@H]12        < 100 nM
2  CS(=O)(=O)N[C@H]1CCCN2C(=O)CCc3ccccc3[C@H]3CC[C@H](CC3)OC[C@@H]12  100 to 1000 nM

# input for lookup
Enquiry: Lab note: need EC50 with human orexin-2 receptor (OX2R) (Homo sapiens) for entry CS(=O)(=O)N[C@@H]1CCCN2C(=O)COc3ccncc3[C@H]3CC[C@H](CC3)OC[C@H]12 (racemic) , please look it up.
Return: 100 to 1000 nM

----------
- Tested on: human hepatocytes
- test_description: Hepatocytes stability assay (human hepatocytes)
- Assay type: in vitro ADME
- settings: scaled hepatic clearance divided by liver blood flow, fu assumed unity
assay_metric: Extraction Ratio (ER)

Completed entries (count: 4):
> print(dat)
                                   compound           assay.metric  quantitative.readout
1  CS(=O)(=O)N[C@H]1CCN2C(=O)COc3c(F)cc(F)cc3C3CCC(CC3)OCC12 (stereo partly drawn) [Compound 43]  Extraction Ratio (ER)                  0.83
2  CS(=O)(=O)N[C@H]1CCCN2C(=O)COc3c(F)cc(F)cc3C3CCC(CC3)OCC12 (stereo partly drawn) [Compound 12]  Extraction Ratio (ER)                  0.66
3  CS(=O)(=O)N[C@H]1CCCN2CCOc3ccccc3C3CCC(CC3)OCC12 (stereo partly drawn) [Compound 6]  Extraction Ratio (ER)                  0.87
4  CS(=O)(=O)N[C@H]1CCCN2CC(F)(F)Oc3ccccc3C3CCC(CC3)OCC12 (stereo partly drawn) [Compound 41]  Extraction Ratio (ER)                  0.90

[I] CS(=O)(=O)N[C@H]1CCCN2C(=O)CCCCOc3ccccc3C3CCC(CC3)OCC12 (stereo partly drawn) [Compound 3]
[II] CS(=O)(=O)N[C@H]1CCCN2C(=O)COc3ncc(F)cc3C3CCC(CC3)OCC12 (stereo partly drawn) [Compound 64]
Enquiry: Task for the reader: decide whether I or II has the larger Extraction Ratio (ER). Answer by stating the label of the chosen item.
Return: I
(I: 0.87, II: 0.57)

----------
- test_description: Hepatocytes stability assay (human hepatocytes)
- Assay type: in vitro ADME
- settings: both sexes, cryopreserved hepatocytes, 1 μM test compound, 1×10^6 cell/mL, 37 degrees C, read-out: CLint (μL/min/million cells)
// reported hepatocyte CLint at 1 μM per item

Study these solved cases before continuing.
> print(dat)
                                   compound                  result
1  CS(=O)(=O)N[C@@H]1CCCN2C(=O)COc3cccnc3[C@H]3CC[C@H](CC3)OC[C@H]12 (racemic)  < 1.9 µL/min/1e6 cells
2  CS(=O)(=O)N[C@H]1CCCN2C(=O)COc3nccnc3C3CCC(CC3)OCC12 (stereo partly shown)  < 1.9 µL/min/1e6 cells
3  CS(=O)(=O)N[C@@H]1CCCN2C(=O)COc3ccncc3[C@H]3CC[C@H](CC3)OC[C@H]12 (racemic)  < 1.9 µL/min/1e6 cells

Field: next compound
Enquiry: Need hepatocyte CLint at 1 μM of CS(=O)(=O)N[C@H]1CCCN2CCOc3c(F)cccc3C3CCC(CC3)OCC12 (stereo partly shown) , thanks.
Return: 47 µL/min/1e6 cells

----------
- target_entity: UniProt O43614
- Sequence (O43614 1-444): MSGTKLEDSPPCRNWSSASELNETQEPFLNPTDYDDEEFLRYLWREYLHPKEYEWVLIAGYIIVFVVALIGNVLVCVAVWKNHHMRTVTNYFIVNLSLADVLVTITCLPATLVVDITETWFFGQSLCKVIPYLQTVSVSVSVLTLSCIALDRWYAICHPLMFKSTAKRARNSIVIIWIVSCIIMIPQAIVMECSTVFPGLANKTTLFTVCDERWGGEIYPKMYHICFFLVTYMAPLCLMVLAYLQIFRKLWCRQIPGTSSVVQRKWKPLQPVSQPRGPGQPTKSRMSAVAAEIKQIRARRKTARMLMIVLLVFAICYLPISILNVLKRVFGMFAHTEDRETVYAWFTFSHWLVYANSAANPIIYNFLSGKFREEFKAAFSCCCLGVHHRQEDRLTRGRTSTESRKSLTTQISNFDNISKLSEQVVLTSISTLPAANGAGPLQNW
- test_description: Human OX2R IP1 assay
- settings: T-Rex CHO cells stably overexpressing human OX2R, IP1 accumulation, 1 hr at 37 degrees C; mean EC50; ∧ = racemic mixture
// values below are reported EC50

Sample records with EC50:
> print(dat)
                                        smi  assay.metric          result
1  CS(=O)(=O)N[C@H]1CCCN2C(=O)COc3ncccc3[C@H]3CC[C@H](CC3)OC[C@@H]12          EC50        < 100 nM
2  CS(=O)(=O)N[C@H]1CCCN2CCOc3ccc(Cl)cc3[C@H]3CC[C@H](CC3)OC[C@@H]12          EC50       > 1000 nM
3  CS(=O)(=O)N[C@H]1CCCN2CC(F)(F)Oc3c(F)cc(F)cc3[C@H]3CC[C@H](CC3)OC[C@@H]12          EC50  100 to 1000 nM

Now take the following compound into account.
Enquiry: Given `CS(=O)(=O)N[C@H]1CCCN2C(=O)COc3nccnc3[C@H]3CC[C@H](CC3)OC[C@@H]12` , state its recorded EC50.
Return: < 100 nM

----------
- Tested on: human hepatocytes
- test_description: Hepatocytes stability assay (human hepatocytes)
- Format: in vitro ADME
- settings: scaled hepatic clearance divided by liver blood flow, fu assumed unity
assay_metric: Extraction Ratio (ER)

For orientation, consider the following solved cases.
> print(dat)
                                   molecule           assay.metric  result
1  CS(=O)(=O)N[C@H]1CCCN2C(=O)COc3nnccc3[C@H]3CC[C@H](CC3)OC[C@@H]12  Extraction Ratio (ER)   <0.22
2  CS(=O)(=O)N[C@@H]1CCCN2C(=O)COc3cccnc3[C@H]3CC[C@H](CC3)OC[C@H]12 (racemic)  Extraction Ratio (ER)   <0.22

Enquiry: What value of measured Extraction Ratio (ER) is listed for CS(=O)(=O)N[C@@H]1CCCN2C(=O)COc3ccncc3[C@H]3CC[C@H](CC3)OC[C@H]12 (racemic) ?
Return: <0.22
